B1: PPEF2 (parent)
chain: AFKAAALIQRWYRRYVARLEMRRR

# Variants of: B1
# protocol notes: protein stability index of a GFP-peptide fusion (GPS, HEK-293T) (PSI 1-6); higher = more stable;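 also: lentivirally expressed fusions sorted by FACS into six bins by GFP to DsRed ratio, PSI derived from sequencing read proportions per bin multiplied by bin number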
# protocol conditions: c terminus: a fixed tail appended
Collected protein stability index values appear next to each entry.

variant key	protein stability index
R23E	2.44
R23S	1.65
W11E	2.46
R14Y	1.79
R24E	3
A4V	2.55
I8S	4.29
W11A	4.29
R14V	1.07
W11G	2.55
A1L	4.05
R22P	1.52
Y12E	3.14
R18F	3.27
V16C	3.05
Y15H	4.56
A5E	4.4
V16Y	2.96
Q9Y	2.23
M21I	3.54
F2R	3.76
W11L	3.79
